# System: HeLa
# TEST_SUMMARY: Proliferation assay, crystal violet
# Type: cell-based
# CONDITION_INFO: Homo sapiens, 96 h, 4 days, read-out: Inhibition of HeLa cell proliferation IC50
ATTRIBUTE_MEASURED: IC50 (nM)

Guide cases for IC50, answers given:
{"MOLECULE": "CS(=N)(=N)Cc1cc2cc(c1)OCCCCOc1cc(F)ccc1-c1nc(ncc1F)N2 [Example 5]", "STUDY_SYSTEM": "HeLa", "UNIT_OF_MEASURE": "nM", "MEASURED_RESULT": 25.8}
{"MOLECULE": "CS(=N)(Cc1cc2cc(c1)OCCCCOc1cc(F)ccc1-c1nc(ncc1F)N2)=NC1CC1 (racemic) [Example 9]", "STUDY_SYSTEM": "HeLa", "UNIT_OF_MEASURE": "nM", "MEASURED_RESULT": 31.6}
{"MOLECULE": "CS(=N)(=N)Cc1cc2nc(c1)OCCCOc1cc(F)ccc1-c1cc(ncc1F)N2 [Example 1]", "STUDY_SYSTEM": "HeLa", "UNIT_OF_MEASURE": "nM", "MEASURED_RESULT": 2.8}
{"MOLECULE": "CS(=N)(=N)Cc1cc2cc(c1)OCCCCOc1c(ccc(F)c1F)-c1nc(ncc1F)N2 [Example 6]", "STUDY_SYSTEM": "HeLa", "UNIT_OF_MEASURE": "nM", "MEASURED_RESULT": 313}

a = CS(=N)(=N)Cc1cc2nc(c1C#N)OCCCOc1cc(F)ccc1-c1cc(ncc1F)N2 [Example 8]
b = CS(=N)(Cc1cc2nc(c1)OCCCOc1cc(F)ccc1-c1cc(ncc1F)N2)=NCCCO (racemic) [Example 2]
c = CS(=N)(=N)Cc1cc2cc(c1)OCCCCOc1c(F)cccc1-c1nc(ncc1F)N2 [Example 7]
// ranking: key=IC50, reverse=True Reply with the labels, ordered as the question asks.
c, b, a

###

# STUDY_SYSTEM: CDK2/CycE (Homo sapiens)
# Construct: GST; purchased ProQinase GmbH (Freiburg, Germany); host or cells: insect cells (Sf9)
# TEST_SUMMARY: CDK2/CycE high ATP kinase assay (Method 2b, TR-FRET, 2 mM ATP)
# Format: biochemical
pIC50: −log10 of the molar value.
ATTRIBUTE_MEASURED: pIC50

See these solved cases before continuing.
{"COMPOUND": "CS(=N)(=N)Cc1cc2nc(c1C#N)OCCCOc1cc(F)ccc1-c1cc(ncc1F)N2", "STUDY_SYSTEM": "CDK2/CycE (Homo sapiens)", "pIC50": 6.42}
{"COMPOUND": "CS(=N)(Cc1cc2nc(c1)OCCCOc1cc(F)ccc1-c1cc(ncc1F)N2)=NCCCO (racemic)", "STUDY_SYSTEM": "CDK2/CycE (Homo sapiens)", "pIC50": 6.61}

P = CN=S(C)(=N)Cc1cc2nc(c1)OCCCOc1cc(F)ccc1-c1cc(ncc1F)N2 (racemic)
Q = CS(=N)(=N)Cc1cc2cc(c1)OCCCCOc1c(ccc(F)c1F)-c1nc(ncc1F)N2
R = CS(=N)(=N)Cc1cc2nc(c1)OCCCOc1cc(F)ccc1-c1cc(ncc1F)N2
Put the items in order so that reported pIC50 rises from first to last. Order the labels as requested and give them as your answer.
Q, P, R
(Q: 4.90, P: 6.21, R: 6.85)

1 = CS(=N)(=N)Cc1cc2cc(c1)OCCCCOc1cc(F)ccc1-c1nc(ncc1F)N2
2 = CS(=N)(Cc1cc2nc(c1)OCCCOc1cc(F)ccc1-c1cc(ncc1F)N2)=NC#N (racemic)
pIC50 comparison. Which is larger, 1 or 2 ? The response must carry the label of the picked entry.
2
(2: 7.20, 1: 5.91)

a = CS(=N)(Cc1cc2cc(c1)OCCCCOc1cc(F)ccc1-c1nc(ncc1F)N2)=NC1CC1 (racemic)
b = CN=S(C)(=N)Cc1cc2cc(c1)OCCCCOc1cc(F)ccc1-c1nc(ncc1F)N2 (racemic)
Of the pair a and b , name the member with the lesser recorded pIC50. # reply format: chosen label
b

###

# STUDY_SYSTEM: CDK9/CycT1 (Homo sapiens, UniProt P50750)
# Construct: Recombinant full-length His-tagged human CDK9 and CycT1; His; purchased Invitrogen PV4131; host or cells: insect cells
# Sequence (P50750 whole entry): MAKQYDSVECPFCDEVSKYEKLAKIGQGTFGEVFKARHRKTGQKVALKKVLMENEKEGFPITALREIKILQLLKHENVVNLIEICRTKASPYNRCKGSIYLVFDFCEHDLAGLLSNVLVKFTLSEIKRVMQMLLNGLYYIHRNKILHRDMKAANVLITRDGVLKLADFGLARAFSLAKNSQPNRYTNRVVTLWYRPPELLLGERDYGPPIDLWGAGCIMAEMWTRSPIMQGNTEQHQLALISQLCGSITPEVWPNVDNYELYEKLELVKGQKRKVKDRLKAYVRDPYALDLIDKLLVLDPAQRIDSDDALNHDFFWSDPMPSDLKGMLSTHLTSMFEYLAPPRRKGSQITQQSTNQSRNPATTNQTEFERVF
# Sequence (O60563 whole entry partner): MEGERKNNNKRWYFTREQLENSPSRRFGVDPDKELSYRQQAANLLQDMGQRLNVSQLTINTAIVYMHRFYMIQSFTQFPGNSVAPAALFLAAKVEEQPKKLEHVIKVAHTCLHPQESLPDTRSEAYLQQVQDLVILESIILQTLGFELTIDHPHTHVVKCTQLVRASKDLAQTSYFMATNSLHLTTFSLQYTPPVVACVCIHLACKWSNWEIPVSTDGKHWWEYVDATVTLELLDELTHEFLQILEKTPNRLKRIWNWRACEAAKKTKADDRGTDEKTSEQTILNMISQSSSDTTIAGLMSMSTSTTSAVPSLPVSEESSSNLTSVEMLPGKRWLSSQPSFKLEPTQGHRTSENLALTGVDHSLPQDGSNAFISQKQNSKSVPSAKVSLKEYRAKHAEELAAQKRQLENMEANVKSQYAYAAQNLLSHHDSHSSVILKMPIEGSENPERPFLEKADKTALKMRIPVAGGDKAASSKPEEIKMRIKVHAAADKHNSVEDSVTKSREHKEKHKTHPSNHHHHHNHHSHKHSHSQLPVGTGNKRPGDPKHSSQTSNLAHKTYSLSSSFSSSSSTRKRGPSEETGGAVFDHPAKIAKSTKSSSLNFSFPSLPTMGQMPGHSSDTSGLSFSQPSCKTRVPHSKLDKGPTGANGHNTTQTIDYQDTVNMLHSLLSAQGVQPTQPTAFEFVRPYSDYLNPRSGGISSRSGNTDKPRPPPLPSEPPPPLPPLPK
# TEST_SUMMARY: CDK9/CycT1 high ATP kinase assay (Method 1b, TR-FRET, 2 mM ATP)
# Format: biochemical
# CONDITION_INFO: Methods 1b and 2b; minimal values
ATTRIBUTE_MEASURED: Selectivity high ATP CDK9 over high ATP CDK2: IC50 (high ATP CDK2)/IC50 (high ATP CDK9)

I = CS(=N)(Cc1cc2nc(c1)OCCCOc1cc(F)ccc1-c1cc(ncc1F)N2)=NCCCO (racemic)
II = CS(=N)(=N)Cc1cc2cc(c1)OCCCCOc1c(F)cccc1-c1nc(ncc1F)N2
When the recorded Selectivity high ATP CDK9 over high ATP CDK2: IC50 (high ATP CDK2)/IC50 (high ATP CDK9) values are compared, which is smaller: that of I or that of II ? Answer by stating the label of the chosen item.
I

###

# STUDY_SYSTEM: T1, human PTEFb (CDK9/Cyclin T1) (Homo sapiens, UniProt P50750)
# T1 construct: purchased ProQinase, Freiburg, Germany
# T1 sequence (P50750 whole entry): as the sequence (P50750 whole entry) above
# T1 sequence (O60563 whole entry partner): as the sequence (O60563 whole entry partner) above
# TEST_SUMMARY: Surface Plasmon Resonance PTEFb
# Type: binding
# CONDITION_INFO: 25° C., Parameters B; read-out: Dissociation rate constant koff
# maps each entry to its koff

Check out these entries, answers already filled in.
{"COMPOUND": "CS(=N)(=N)Cc1cc2nc(c1)OCCCOc1cc(F)ccc1-c1cc(ncc1F)N2", "koff": "< 2.5e-05 s⁻¹"}
{"COMPOUND": "CS(=N)(Cc1cc2nc(c1)OCCCOc1cc(F)ccc1-c1cc(ncc1F)N2)=NC#N (racemic)", "koff": "< 2.5e-05 s⁻¹"}

GET /value?item= CS(=N)(Cc1cc2nc(c1)OCCCOc1cc(F)ccc1-c1cc(ncc1F)N2)=NCCCO (racemic) &field=koff returns < 2.5e-05 s⁻¹

FYI, the data here is from patent US10717749B2.
